Molecular target: Beta-secretase 1 (Homo sapiens, UniProt P56817)
Sequence (P56817 whole entry, the tested form may be a part): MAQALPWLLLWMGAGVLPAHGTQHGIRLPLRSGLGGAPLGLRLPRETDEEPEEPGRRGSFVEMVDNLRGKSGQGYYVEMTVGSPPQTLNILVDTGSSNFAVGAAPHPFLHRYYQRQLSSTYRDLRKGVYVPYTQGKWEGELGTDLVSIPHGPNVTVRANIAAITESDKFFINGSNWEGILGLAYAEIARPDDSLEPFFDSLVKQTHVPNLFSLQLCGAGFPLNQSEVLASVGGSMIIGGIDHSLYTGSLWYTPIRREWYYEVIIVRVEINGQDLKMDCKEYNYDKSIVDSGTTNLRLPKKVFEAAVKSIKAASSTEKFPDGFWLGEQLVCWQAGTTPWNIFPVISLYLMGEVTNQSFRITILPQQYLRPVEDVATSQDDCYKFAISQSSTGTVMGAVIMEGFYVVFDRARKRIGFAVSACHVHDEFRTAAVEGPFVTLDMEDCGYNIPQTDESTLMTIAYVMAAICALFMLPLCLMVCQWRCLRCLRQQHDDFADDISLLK
Test: Inhibition of BACE1 (1 to 454 residues) (unknown origin) using APP derived polypeptide harboring Lys-Met/Asn-Leu mutation as substrate by FRET assay
Friendly reminder: IC50 below 200 nM is yes (1), at or above is no (0).

The examples below pair each entry with its known result.
LINE NOTATION | CAT
C[C@@]1(c2cc(N/C=C/c3ccc(C#N)cn3)ccc2F)COCC(N)=N1 | no (0)
C[C@]1(c2cc(NC(=O)c3ncc(C#N)cc3Cl)ccc2F)N=C(N)CO[C@@H]1F | yes (1)
COCCOc1cnc(C(=O)Nc2ccc(F)c([C@@]3(C)N=C(N)CO[C@H]3C(F)(F)F)c2)cn1 | yes (1)
C[C@]1(c2cc(NC(=O)c3ccc(C#N)cn3)ccc2F)N=C(N)CO[C@H]1C(F)(F)F | yes (1)

# check: IC50 < 200 nM for C[C@]1(c2cc(NC(=O)c3cnc(NCC(F)(F)F)cn3)ccc2F)N=C(N)CO[C@H]1C(F)(F)F
no (0)

# check: IC50 < 200 nM for COc1cnc(C(=O)Nc2ccc(F)c([C@@]3(C)N=C(N)CO[C@H]3C(F)F)c2)cn1
yes (1)

# check: IC50 < 200 nM for C[C@]1(c2cc(NC(=O)c3cnc(NC4CC4)cn3)ccc2F)N=C(N)CO[C@H]1C(F)(F)F
no (0)

# check: IC50 < 200 nM for COc1cnc(C(=O)Nc2ccc(F)c([C@@]3(C)N=C(N)COC3=C(F)F)c2)cn1
yes (1)

# check: IC50 < 200 nM for C[C@]1(c2cc(NC(=O)c3cnc(OCC(F)(F)F)cn3)ccc2F)N=C(N)CO[C@H]1C(F)(F)F
yes (1)

----------
Molecular target: UniProt:Q12809
Sequence (Q12809 whole entry): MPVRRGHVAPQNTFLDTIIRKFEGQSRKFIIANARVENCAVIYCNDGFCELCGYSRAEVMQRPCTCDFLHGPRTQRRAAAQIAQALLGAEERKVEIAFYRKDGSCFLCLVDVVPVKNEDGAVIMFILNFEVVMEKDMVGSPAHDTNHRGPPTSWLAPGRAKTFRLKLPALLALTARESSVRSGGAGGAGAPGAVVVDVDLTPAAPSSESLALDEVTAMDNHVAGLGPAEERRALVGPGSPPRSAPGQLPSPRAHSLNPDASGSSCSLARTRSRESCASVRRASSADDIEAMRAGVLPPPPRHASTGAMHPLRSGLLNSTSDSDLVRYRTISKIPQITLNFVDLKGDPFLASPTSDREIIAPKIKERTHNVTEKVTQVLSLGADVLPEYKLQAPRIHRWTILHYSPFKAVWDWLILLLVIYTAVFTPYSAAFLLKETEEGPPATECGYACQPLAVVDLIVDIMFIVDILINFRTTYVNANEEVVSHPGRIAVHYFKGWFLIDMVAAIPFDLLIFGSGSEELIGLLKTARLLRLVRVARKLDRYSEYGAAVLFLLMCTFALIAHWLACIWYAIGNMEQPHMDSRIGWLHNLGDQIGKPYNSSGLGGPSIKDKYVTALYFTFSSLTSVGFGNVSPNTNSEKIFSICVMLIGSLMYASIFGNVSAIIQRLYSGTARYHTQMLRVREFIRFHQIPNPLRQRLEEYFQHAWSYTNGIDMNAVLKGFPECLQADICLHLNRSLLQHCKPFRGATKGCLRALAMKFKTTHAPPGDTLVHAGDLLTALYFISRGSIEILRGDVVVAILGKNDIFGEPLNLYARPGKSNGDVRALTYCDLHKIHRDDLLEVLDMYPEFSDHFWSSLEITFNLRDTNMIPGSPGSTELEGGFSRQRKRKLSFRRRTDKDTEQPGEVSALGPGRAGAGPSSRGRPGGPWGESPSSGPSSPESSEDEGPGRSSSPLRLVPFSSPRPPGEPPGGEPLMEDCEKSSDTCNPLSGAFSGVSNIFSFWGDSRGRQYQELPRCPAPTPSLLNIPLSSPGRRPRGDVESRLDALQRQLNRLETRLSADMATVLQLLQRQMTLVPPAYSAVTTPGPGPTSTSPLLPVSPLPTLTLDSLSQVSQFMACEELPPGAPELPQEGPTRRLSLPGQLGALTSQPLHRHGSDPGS
Experiment: Inhibition of human ERG expressed in HEK293 cells assessed as reduction in outward potassium current at 3 uM at holding potential was -80 mV after 5 mins by patch clamp assay
Type: cell-based
Settings: HEK293 cells that express hERG
# label = 1 (yes) if inhibition at 5 min, 3 µM >= 20% else 0 (no)

The examples below pair each entry with its known result.
LINE NOTATION | CAT
C[C@]1(c2cc(NC(=O)c3ccc(C#N)cn3)ccc2F)N=C(N)CO[C@H]1C(F)(F)F | 1 (yes)
C[C@]1(c2cc(NC(=O)c3ncc(C#N)cc3Cl)ccc2F)N=C(N)CO[C@@H]1F | 0 (no)
C[C@]1(c2cc(NC(=O)c3ccc(Cl)cn3)ccc2F)N=C(N)CO[C@H]1C(F)(F)F | 1 (yes)

State whether the measured inhibition at 5 min, 3 µM reaches 20%, counting equality as reaching it, for COc1cnc(C(=O)Nc2ccc(F)c([C@@]3(C)N=C(N)CO[C@H]3C(F)(F)F)c2)cn1
0 (no)

State whether the measured inhibition at 5 min, 3 µM reaches 20%, counting equality as reaching it, for COc1cnc(C(=O)Nc2ccc(F)c([C@@]3(C)N=C(N)CO[C@H]3C(F)F)c2)cn1
1 (yes)

State whether the measured inhibition at 5 min, 3 µM reaches 20%, counting equality as reaching it, for C[C@]1(c2cc(NC(=O)c3ncc(C#N)cc3F)ccc2F)N=C(N)CO[C@@H]1F
1 (yes)

State whether the measured inhibition at 5 min, 3 µM reaches 20%, counting equality as reaching it, for C[C@]1(c2cc(NC(=O)c3ncc(C#N)cc3Cl)ccc2F)N=C(N)CO[C@H]1C(F)(F)F
0 (no)
